B1: TMEM175 (parent)
chain: SCTIIFLASIFQLAMWTTALLHQA

Variants of: B1
Assay: protein stability index of a GFP-peptide fusion (GPS, HEK-293T) (PSI 1-6); higher = more stable;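 further: lentivirally expressed fusions sorted by FACS into six bins by GFP to DsRed ratio, PSI derived from sequencing read proportions per bin multiplied by bin number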
Conditions: c terminus: a fixed tail appended
quantity: protein stability index
Lab note: jot down the number only; don't add units.

So what does the record say about protein stability index for WCTIIFLASIFQLAMWTTALLHQA [S1W] ?
2.14

Another: SCAIIFLASIFQLAMWTTALLHQA [T3A]
3.36

Check SCTIIFLASIFQNAMWTTALLHQA [L13N] too.
3.15

Also SCTIIFLASIFQLAMWTGALLHQA [T18G] , if possible.
1.6

And the next one, SCTIIFLASIFQLAMWTTALQHQA [L21Q] ?
2.64

Again, but for SATIIFLASIFQLAMWTTALLHQA [C2A]
3.34

And SCTIIFLASIFQLAPWTTALLHQA [M15P] ?
3.25

Follow-up item: SCTIIFLASIFQLAMWTTALLHQE [A24E]
3.22

Also need SCTIIFLASIKQLAMWTTALLHQA [F11K] , thanks.
3.11

Next entry: SCTIIFLASKFQLAMWTTALLHQA [I10K]
3.74

Try the variant SCTIIFLASIFQDAMWTTALLHQA [L13D]
2.59

This collection of values is drawn from the supplement of paper PMC10567573.
